Assay: qHTS of pediatric cancer cell lines to identify multiple opportunities for drug repurposing: Primary screen for NB1643 cells (AID 1347099); further: nearly all actives have a fitted effect of over 50% in size
Conditions: NB1643 neuroblastoma viability, CellTiter-Glo luminescence, 48 h; series mostly up to 46 µM
Description: Drug repurposing or repositioning has been offered as a strategy for drug development in oncology programs. This approach has special potential for childhood cancers and other rare or orphan diseases, where the expected return on new drug development has been a disincentive to pharmaceuticals. […] We employed a titration-based paradigm (quantitative high-throughput screening or qHTS), where all compounds were tested at multiple concentrations for their effect on cell viability. […]
Inconclusive results are not listed. The source made the active and inactive calls. The call rests on the fitted dose curve; in most records, active means well fitted cell-killing curve with a large enough effect; inconclusive means small, poorly fitted or top-dose-only effect; inactive means no such curve, though single readings can be large or run the other way.
Labels: True (active), False (inactive)

structure	assigned.category
CCc1c(O)cc(O)c(C(=O)c2ccc(OCCN3CCOCC3)c(OC)c2)c1CC(=O)N(CCOC)CCOC	True
COc1cccc2c1C(=O)c1c(O)c3c(c(O)c1C2=O)C[C@@](O)(C(=O)CO)C[C@H]3O[C@H]1C[C@H](N)[C@H](O)[C@H](C)O1	True
Cc1cc(-c2nnc3n2CCCCC3)c(C)n1-c1ccccc1	False
CC(=O)NCC(=O)N1[C@H]2CC[C@H]1c1cc(Nc3ncc(C(F)(F)F)c(NC4CCC4)n3)ccc12	True
C[C@H](NCc1ccc(OCc2cccc(F)c2)cc1)C(N)=O	True
CCCCCCCCCCCCc1ccc(S(=O)(=O)Nc2nncs2)cc1	False
CCN(C(=O)c1c(O)c2c(Cl)cccc2n(C)c1=O)c1ccccc1	False
N#Cc1ccc(COC[C@H]2O[C@@H](n3c(NCc4ccc(Cl)c(Cl)c4)nc4c(N)ncnc43)[C@@H](O)[C@@H]2O)cc1	True
CCOc1cc2c(c(F)c1OCC)C(=N)N(CC(=O)c1cc(N3CCOCC3)c(OC)c(C(C)(C)C)c1)C2	True
